System: IFNα-Induced STAT Phosphorylation
experimental-details: IFNα-Induced STAT Phosphorylation in Human Whole Blood
Format: cell-based
measurement-context: Homo sapiens, 1 h compound incubation, 1000 U/mL recombinant human IFNα A/D for 15 min, pSTAT5 in CD3 positive population, read-out: LE Human WB IFNα-Induced Stat Phosph. (IC50)
pIC50: −log10 of the molar value.
measured-metric: pIC50

smiles-data	pIC50
[2H]C([2H])([2H])NC(=O)c1nnc(Nc2cc(C(F)(F)F)ccn2)cc1Nc1nccc(-c2ncn(C)n2)c1OC	7.05
[2H]C([2H])([2H])NC(=O)c1nnc(NC(=O)CC2CC2)cc1Nc1nccc(-c2cnc(C(=O)N(C)C)cn2)c1OC	6.68
[2H]C([2H])([2H])NC(=O)c1cnc(NC(=O)C2CC2)cc1Nc1nccc(-c2noc(COC(C)C)n2)c1OC	7.70

(a) [2H]C([2H])([2H])NC(=O)c1nnc(NC(=O)C2CC2)cc1Nc1nccc(-c2cnc(C(=O)N(C)C)cn2)c1OC
(b) [2H]C([2H])([2H])NC(=O)c1cnc(NC(=O)C2CC2)cc1Nc1nccc(-c2noc(COC)n2)c1OC
*Q* Compare pIC50: is it lower for a or for b ? Pick one and reply with its label.
*A* a
(a: 7.52, b: 8.00)

(I) [2H]C([2H])([2H])NC(=O)c1cnc(NC(=O)CC)cc1Nc1nccc(-c2noc(COC)n2)c1OC
(II) [2H]C([2H])([2H])NC(=O)c1nnc(Nc2ccc(C(C)(C)O)cn2)cc1Nc1nccc(-c2ncn(C)n2)c1OC
*Q* Exercise: compare I and II ; which one has the greater pIC50? Pick one and reply with its label.
*A* II

(I) [2H]C([2H])([2H])NC(=O)c1cnc(NC(=O)C2CC2)cc1Nc1nccc(-c2ccc(Cl)cn2)c1OC
(II) [2H]C([2H])([2H])NC(=O)c1cnc(NC(=O)C2CC2)cc1Nc1nccc(-c2noc(C)n2)c1OC
(III) [2H]C([2H])([2H])NC(=O)c1nnc(NC(=O)CC2CC2)cc1Nc1nccc(-c2noc(CN(C)S(C)(=O)=O)n2)c1OC
(IV) [2H]C([2H])([2H])NC(=O)c1nnc(Nc2ccncc2)cc1Nc1nccc(-c2ncn(C)n2)c1OC
*Q* Please put the entries in order of rising pIC50. Rank them, then answer with their labels in that order.
*A* I, IV, III, II

* * *

Test system: IFNα-Induced STAT Phosphorylation
experimental-details: IFNα-Induced STAT Phosphorylation in Human Whole Blood
Type: cell-based
measurement-context: Homo sapiens, 1 h compound incubation, 1000 U/mL recombinant human IFNα A/D for 15 min, pSTAT5 in CD3 positive population, read-out: LE Human WB IFNα-Induced Stat Phosph. (IC50)
pIC50: −log10 of the molar value.
measured-metric: pIC50

compound	assayed-target	assay-value
[2H]C([2H])([2H])NC(=O)c1nnc(NC(=O)CC(C)C)cc1Nc1nccc(-c2noc(CN3CCOCC3)n2)c1OC [Example 69]	IFNα-Induced STAT Phosphorylation	6.15

(I) [2H]C([2H])([2H])NC(=O)c1nnc(NC(=O)C2CC2)cc1Nc1nccc(-c2noc(CN3CCOCC3)n2)c1OC [Example 55]
(II) [2H]C([2H])([2H])NC(=O)c1nnc(NC(=O)C2CC2)cc1Nc1nccc(-c2noc(CN(C)C)n2)c1OC [Example 58]
*Q* Compare pIC50: is it lower for I or for II ? Pick one and reply with its label.
*A* II

(I) [2H]C([2H])([2H])NC(=O)c1nnc(NC(=O)C2CC2)cc1Nc1nccc(-c2noc([C@H](C)O)n2)c1OC [Example 57]
(II) [2H]C([2H])([2H])NC(=O)c1nnc(NC(=O)OC)cc1Nc1nccc(-c2noc(CN3CCOCC3)n2)c1OC [Example 53]
(III) [2H]C([2H])([2H])NC(=O)c1cnc(NC(=O)C2CC2)cc1Nc1nccc(-c2ccc(NC(=O)C3CC3)cn2)c1OC [Example 85]
*Q* Please put the entries in order of rising pIC50. Rank them, then answer with their labels in that order.
*A* II, III, I

(I) [2H]C([2H])([2H])NC(=O)c1nnc(Nc2cc(C(C)(C)O)ccn2)cc1Nc1nccc(-c2ncn(C)n2)c1OC [Example 25]
(II) [2H]C([2H])([2H])NC(=O)c1nnc(Nc2cc(C(C)(C)O)ccn2)cc1Nc1nccc(-c2noc(C)n2)c1OC [Example 80]
(III) [2H]C([2H])([2H])NC(=O)c1nnc(Nc2ccc(N3CCOCC3)cn2)cc1Nc1nccc(-c2ncn(C)n2)c1OC [Example 38]
*Q* Place the items in sequence of falling pIC50. Rank them, then answer with their labels in that order.
*A* III, I, II
(III: 8.00, I: 7.30, II: 6.22)

* * *

Tested on: IFNα-Induced STAT Phosphorylation
experimental-details: IFNα-Induced STAT Phosphorylation in Human Whole Blood
Type: cell-based
measurement-context: Homo sapiens, 1 h compound incubation, 1000 U/mL recombinant human IFNα A/D for 15 min, pSTAT5 in CD3 positive population, read-out: LE Human WB IFNα-Induced Stat Phosph. (IC50)
Description: IFNα-Induced STAT Phosphorylation in Human Whole Blood The amount of pSTAT5 expression was quantitated by median fluorescence intensity after gating on the CD3 positive population.
pIC50: −log10 of the molar value.
measured-metric: pIC50

smiles-data	pIC50
[2H]C([2H])([2H])NC(=O)c1cnc(Nc2cc(C#N)ccn2)cc1Nc1nccc(-c2nnn(C)n2)c1OC	7.15

(a) [2H]C([2H])([2H])NC(=O)c1cnc(NC(=O)CC2CC2)cc1Nc1nccc(-c2noc(C)n2)c1OC
(b) [2H]C([2H])([2H])NC(=O)c1nnc(Nc2ccc(-n3cccc(C(F)(F)F)c3=O)cn2)cc1Nc1nccc(-c2ncn(C)n2)c1OC
*Q* Exercise: compare a and b ; which one has the greater pIC50? Pick one and reply with its label.
*A* b
